target: muscarinic acetylcholine receptors; assay: inhibition of specific binding of ^3 H-Oxotremorine-M (^3 H-Oxo); conditions: rat cortical receptors; ^3 H-Oxotremorine 1.0 nM, 25° C., 30 min
endpoint: IC50 (nM)
Answers are plain numbers, in nM.

IC50 in this record for CC(=O)/C=C1\CN2CCC1CC2.O=C(O)C(=O)O [Compound 1, oxalate] : 1200

* * *

molecular target: nicotinic acetylcholine receptors (Rattus norvegicus, UniProt P09483+P12390); construct: Fresh or frozen rat, brain tissue (hippocampus or cortex) was homogenized; assay: inhibition of specific binding of ^3 H-methylcarbamylcholine (^3 H-MCC); conditions: rat cortical receptors; ^3 H-MCC 2 nM, 0° C., 60 min
Sequence (P09483 31-630): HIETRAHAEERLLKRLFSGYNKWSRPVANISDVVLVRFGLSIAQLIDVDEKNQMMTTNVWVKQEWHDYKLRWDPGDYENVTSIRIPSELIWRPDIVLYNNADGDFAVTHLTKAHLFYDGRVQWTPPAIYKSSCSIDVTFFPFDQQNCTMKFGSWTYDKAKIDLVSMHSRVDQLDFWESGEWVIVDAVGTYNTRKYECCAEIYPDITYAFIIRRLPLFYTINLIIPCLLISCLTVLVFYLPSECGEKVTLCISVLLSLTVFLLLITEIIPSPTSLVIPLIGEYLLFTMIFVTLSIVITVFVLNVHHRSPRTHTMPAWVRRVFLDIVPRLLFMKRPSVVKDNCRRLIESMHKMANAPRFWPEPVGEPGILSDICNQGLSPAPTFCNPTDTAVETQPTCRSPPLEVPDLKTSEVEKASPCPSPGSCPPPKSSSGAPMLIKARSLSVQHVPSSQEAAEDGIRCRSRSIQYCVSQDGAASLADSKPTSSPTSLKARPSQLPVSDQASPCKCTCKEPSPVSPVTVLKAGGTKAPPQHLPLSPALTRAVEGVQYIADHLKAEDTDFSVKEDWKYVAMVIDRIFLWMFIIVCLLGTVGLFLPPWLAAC
Sequence (P12390 25-500): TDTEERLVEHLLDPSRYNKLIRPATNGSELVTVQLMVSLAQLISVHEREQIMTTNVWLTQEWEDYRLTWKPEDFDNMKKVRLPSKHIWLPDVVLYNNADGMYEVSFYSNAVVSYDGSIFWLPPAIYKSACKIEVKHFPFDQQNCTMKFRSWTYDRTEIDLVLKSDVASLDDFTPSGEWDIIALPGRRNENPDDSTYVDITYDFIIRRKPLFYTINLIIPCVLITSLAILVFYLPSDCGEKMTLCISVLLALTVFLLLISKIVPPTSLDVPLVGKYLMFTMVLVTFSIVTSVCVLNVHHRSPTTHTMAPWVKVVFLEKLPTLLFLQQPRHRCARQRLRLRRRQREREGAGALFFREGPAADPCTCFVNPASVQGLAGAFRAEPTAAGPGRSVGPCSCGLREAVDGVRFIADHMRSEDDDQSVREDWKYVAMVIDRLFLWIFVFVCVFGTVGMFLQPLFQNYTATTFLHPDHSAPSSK
endpoint: IC50 (µM)
One number for each entry, in µM.

IC50 in this record for CC(=O)/C=C1\CN2CCC1CC2.O=C(O)C(=O)O [Compound 1, oxalate] : 0.023
